measured_target: ENaC (Epithelial Sodium Channel) (Mus musculus, UniProt Q61180+Q9WU38+Q9WU39)
Construct: Mouse kidney M-1 cells were cultivated in DMEM containing 5% FCS and 5 μM dexamethasone; endogenous in cells
Sequence (Q61180 whole entry): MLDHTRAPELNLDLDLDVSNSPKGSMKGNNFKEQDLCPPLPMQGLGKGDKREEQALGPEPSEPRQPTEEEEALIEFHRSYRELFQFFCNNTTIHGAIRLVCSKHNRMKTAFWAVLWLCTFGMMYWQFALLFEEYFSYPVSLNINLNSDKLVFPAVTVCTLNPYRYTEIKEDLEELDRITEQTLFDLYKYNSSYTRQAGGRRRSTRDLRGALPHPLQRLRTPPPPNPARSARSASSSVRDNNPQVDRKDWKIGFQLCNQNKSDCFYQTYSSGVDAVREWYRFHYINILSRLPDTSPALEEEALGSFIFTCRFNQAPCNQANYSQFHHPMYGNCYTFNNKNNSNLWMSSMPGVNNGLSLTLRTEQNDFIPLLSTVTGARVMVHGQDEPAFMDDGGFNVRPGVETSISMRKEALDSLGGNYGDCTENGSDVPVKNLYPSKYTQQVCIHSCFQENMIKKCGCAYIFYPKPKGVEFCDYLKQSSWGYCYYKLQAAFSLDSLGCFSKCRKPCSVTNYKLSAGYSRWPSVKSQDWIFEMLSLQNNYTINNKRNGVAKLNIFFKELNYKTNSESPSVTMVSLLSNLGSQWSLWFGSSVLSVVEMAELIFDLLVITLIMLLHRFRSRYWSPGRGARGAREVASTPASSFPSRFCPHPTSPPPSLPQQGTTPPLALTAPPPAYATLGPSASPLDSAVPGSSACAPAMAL
Sequence (Q9WU38 whole entry): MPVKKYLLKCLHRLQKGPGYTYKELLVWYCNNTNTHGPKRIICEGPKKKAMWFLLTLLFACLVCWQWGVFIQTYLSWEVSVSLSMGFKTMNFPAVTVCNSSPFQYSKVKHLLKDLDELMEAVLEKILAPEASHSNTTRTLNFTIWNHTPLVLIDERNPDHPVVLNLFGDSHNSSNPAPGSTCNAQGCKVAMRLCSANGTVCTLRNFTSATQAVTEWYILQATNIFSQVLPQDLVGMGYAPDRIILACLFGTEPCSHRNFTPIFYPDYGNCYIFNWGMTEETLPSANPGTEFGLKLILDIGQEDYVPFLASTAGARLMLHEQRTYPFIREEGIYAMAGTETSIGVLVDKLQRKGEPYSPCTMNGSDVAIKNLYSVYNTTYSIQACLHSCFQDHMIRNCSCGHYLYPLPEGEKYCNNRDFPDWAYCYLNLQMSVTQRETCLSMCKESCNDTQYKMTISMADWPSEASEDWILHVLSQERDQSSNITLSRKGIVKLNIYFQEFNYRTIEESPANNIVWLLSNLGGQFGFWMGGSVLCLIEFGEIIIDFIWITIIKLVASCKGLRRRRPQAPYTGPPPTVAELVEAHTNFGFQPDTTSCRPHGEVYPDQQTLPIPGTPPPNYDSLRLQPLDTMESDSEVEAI
Sequence (Q9WU39 whole entry): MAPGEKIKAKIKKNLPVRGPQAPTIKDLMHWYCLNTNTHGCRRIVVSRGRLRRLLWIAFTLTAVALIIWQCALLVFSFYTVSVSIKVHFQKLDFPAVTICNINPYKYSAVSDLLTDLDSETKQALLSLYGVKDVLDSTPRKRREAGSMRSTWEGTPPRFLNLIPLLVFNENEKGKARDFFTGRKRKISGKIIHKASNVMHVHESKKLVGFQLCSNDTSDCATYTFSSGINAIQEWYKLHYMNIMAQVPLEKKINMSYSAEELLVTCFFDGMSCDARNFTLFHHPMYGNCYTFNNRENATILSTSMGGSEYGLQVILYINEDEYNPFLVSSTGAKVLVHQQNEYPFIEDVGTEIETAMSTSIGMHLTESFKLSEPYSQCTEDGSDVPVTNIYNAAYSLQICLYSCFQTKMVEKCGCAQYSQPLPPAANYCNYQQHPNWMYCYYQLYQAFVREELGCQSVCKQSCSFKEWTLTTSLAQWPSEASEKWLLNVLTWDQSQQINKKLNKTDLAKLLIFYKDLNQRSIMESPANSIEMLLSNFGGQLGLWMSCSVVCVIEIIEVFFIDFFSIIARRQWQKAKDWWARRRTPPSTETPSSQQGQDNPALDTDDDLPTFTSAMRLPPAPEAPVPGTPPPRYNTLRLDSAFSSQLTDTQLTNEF
experiment_summary: Ussing chamber assay: short circuit current (I_sc) in M-1 cells, inhibition of the amiloride sensitive I_SC
assay_setup: Mouse kidney M-1 cells on transwell filters, compounds added to the apical solution, 37° C., voltage-clamp mode
pIC50: −log10 of the molar value.
Decide using pIC50: a value greater than or equal to 8 is met, a smaller one is not met.

Before answering, review these 3 worked examples.
[
  {
    "compound": "NC(=NC(=O)c1nc(Cl)c(N)nc1N)NC1CCN(Cc2cn3cc(C(=O)NCCOCCO)ccc3n2)CC1",
    "class_assignment": "not met"
  },
  {
    "compound": "COC(=O)c1cc(CN2CCC(N/C(N)=N/C(=O)c3nc(Cl)c(N)nc3N)CC2)ccn1",
    "class_assignment": "met"
  },
  {
    "compound": "NC(=NC(=O)c1nc(Cl)c(N)nc1N)NC1CCN(Cc2nc3ccccc3c(=O)[nH]2)CC1",
    "class_assignment": "met"
  }
]

Prompt: Reported pIC50 at or above 8? C#Cc1cncc(CN2CCC(NC(N)=NC(=O)c3nc(Cl)c(N)nc3N)CC2)c1
Completion: met

====

measured_target: ENaC (Epithelial Sodium Channel) (Mus musculus, UniProt Q61180+Q9WU38+Q9WU39)
Construct: Mouse kidney M-1 cells were cultivated in DMEM containing 5% FCS and 5 μM dexamethasone; endogenous in cells
experiment_summary: Ussing chamber assay: short circuit current (I_sc) in M-1 cells, inhibition of the amiloride sensitive I_SC
assay_setup: Mouse kidney M-1 cells on transwell filters, compounds added to the apical solution, 37° C., voltage-clamp mode
Give pIC50 for every item shown.
Answers are plain numbers, as −log10 of the molar value.

Below, 3 compounds whose answers are already recorded.
[
  {
    "compound": "NC(=NC(=O)c1nc(Cl)c(N)nc1N)NC1CCN(Cc2cn3cc(I)ccc3n2)CC1",
    "data_value": 8.52
  },
  {
    "compound": "NC(=NC(=O)c1nc(Cl)c(N)nc1N)NC1CCN(Cc2ccc(CCc3cccnc3)nc2)CC1",
    "data_value": 8.52
  },
  {
    "compound": "NC(=NC(=O)c1nc(Cl)c(N)nc1N)NC1CCN(Cc2ccnc(C(=O)NCCOCCO)c2)CC1",
    "data_value": 8.40
  }
]

Consider the record given below.
Prompt: Requested read-out: pIC50. Entry: COC(=O)c1ccc(CN2CCC(NC(N)=NC(=O)c3nc(Cl)c(N)nc3N)CC2)s1
Completion: 8.52

====

measured_target: ENaC (Epithelial Sodium Channel) (Mus musculus, UniProt Q61180+Q9WU38+Q9WU39)
Construct: Mouse kidney M-1 cells were cultivated in DMEM containing 5% FCS and 5 μM dexamethasone; endogenous in cells
experiment_summary: Ussing chamber assay: short circuit current (I_sc) in M-1 cells, inhibition of the amiloride sensitive I_SC
assay_setup: Mouse kidney M-1 cells on transwell filters, compounds added to the apical solution, 37° C., voltage-clamp mode
measured_endpoint: pIC50
Numbers only, as −log10 of the molar value.

[
  {
    "compound": "NC(=NC(=O)c1nc(Cl)c(N)nc1N)NC1CCN(Cc2cn3cc(C(=O)NCCO)ccc3n2)CC1 [Example 1.8]",
    "measured_endpoint": "pIC50",
    "data_value": 7.96
  },
  {
    "compound": "N/C(=N\\C(=O)c1nc(Cl)c(N)nc1N)NC1CCN(Cc2cncc(-c3cn(CCOCCOCCOCCO)nn3)c2)CC1 [Example 2.2]",
    "measured_endpoint": "pIC50",
    "data_value": 7.92
  }
]

Okay, now this compound:
Prompt: Looking for the measured pIC50 of NC(=NC(=O)c1nc(Cl)c(N)nc1N)NC1CCN(Cc2cn3ccccc3n2)CC1 [Example 1.15] , can you help?
Completion: 8.22
